meta.source: PubChem BioAssay (NCATS)

System: SKOV3
PROTOCOL_DETAILS: Primary qHTS to identify gynecologic anti-cancer compounds using libraries of approved drugs and bioactive compounds (AID 1345084); note: nearly all actives have a fitted effect of over 55% in size; for activity change, negative = cytotoxicity: % is set by controls: 0 for no effect and ±100 for the full control effect
ASSAY_SETUP: Gynecologic cancer cell panel viability, ATPlite luminescence, 48 h; series mostly up to 57.5 µM
Records with an inconclusive call do not appear. Calls of active or inactive are those of the source. Calls come from the whole dose curve; as a rule, active = well fitted cell-killing curve with a large enough effect; inconclusive = small, poorly fitted or top-dose-only effect, or effect the other way; inactive = flat fitted curve, though single readings scatter.
OUTCOME_MEASURE: activity change, negative = cytotoxicity

>>> result("C[C@@H]1O[C@@H](O[C@H]2[C@H](O)[C@@H](O)[C@H](OC[C@H]3O[C@@H](OC(=O)[C@]45CCC(C)(C)C[C@H]4C4=CCC6[C@@]7(C)CC[C@H](O[C@@H]8OC[C@H](O)[C@H](O[C@@H]9O[C@H](CO)[C@@H](O)[C@H](O)[C@H]9O)[C@H]8O)[C@@](C)(CO)C7CC[C@@]6(C)[C@]4(C)CC5)[C@H](O)[C@@H](O)[C@@H]3O)O[C@@H]2CO)[C@H](O)[C@H](O)[C@H]1O (stereo partly specified)")
"11.5% [at 6.55 µM] (inactive)"
>>> result("CC(=O)O[C@@H]1[C@H](O[C@@H]2O[C@@H](CO)[C@H](O)[C@H]2O)[C@@H](O[C@@H]2O[C@@H](C)[C@H](O[C@@H]3OC[C@@H](O)[C@H](O)[C@H]3O)[C@@H](O)[C@H]2O)[C@H](OC(=O)[C@]23CCC(C)(C)C[C@H]2C2=CCC4[C@@]5(C)CC[C@H](O[C@@H]6O[C@H](C(=O)O)[C@@H](O)[C@H](O)[C@H]6O[C@@H]6O[C@H](CO)[C@H](O)[C@H](O)[C@H]6O)[C@@](C)(C=O)C5CC[C@@]4(C)[C@]2(C)CC3)O[C@@H]1C (stereo partly specified)")
"0% [at 6.55 µM] (inactive)"
>>> result("CC1OC(OC2C(C)OC(OC3C(OC(=O)C45CCC(C)(C)CC4C4=CCC6C7(C)CCC(OC8OC(C(=O)O)C(O)C(O)C8OC8OC(CO)C(O)C(OC9OC(C)C(O)C(O)C9O)C8O)C(C)(CO)C7CCC6(C)C4(C)CC5)OC(CO)C(O)C3O)C(O)C2O)C(O)C(O)C1O (stereo unspecified)")
"0% [at 6.55 µM] (inactive)"
>>> result("CC1(C)CC[C@]2(C(=O)O[C@@H]3O[C@H](CO[C@@H]4O[C@H](CO)[C@@H](O)[C@H](O)[C@H]4O[C@@H]4O[C@H](CO)[C@@H](O)[C@H](O)[C@H]4O)[C@@H](O)[C@H](O[C@@H]4O[C@H](CO)[C@@H](O)[C@H](O)[C@H]4O)[C@H]3O)CC[C@]3(C)C(=CCC4[C@@]5(C)CC[C@@H](O)[C@@](C)(C(=O)O[C@@H]6O[C@H](CO)[C@@H](O)[C@H](O)[C@H]6O)C5CC[C@]43C)[C@@H]2C1 (stereo partly specified)")
"-6.61% [at 6.55 µM] (inactive)"
>>> result("CC(=O)N[C@H]1[C@H](O[C@H]2CC[C@@]3(C)C(CC[C@]4(C)C3CC=C3[C@@H]5CC(C)(C)CC[C@]5(C(=O)OC5OCC(O)C(O)C5O)CC[C@]34C)C2(C)C)O[C@H](COC2OC(C)C(O)C(OC3OC(C)C(O)C(O)C3O)C2O)[C@@H](O)[C@@H]1O (stereo partly specified)")
"2.42% [at 11.6 µM] (inactive)"
>>> result("CC(=O)O[C@H]1[C@H](O[C@H]2[C@@H]3C=CO[C@@H](O[C@@H]4O[C@H](CO)[C@@H](O)[C@H](O)[C@H]4O)[C@@H]3[C@@]3(CO)O[C@@H]23)O[C@@H](C)[C@H](OC(=O)/C=C/c2ccccc2)[C@H]1OC(=O)/C=C/c1ccccc1")
"5.38% [at 11.6 µM] (inactive)"

---

Tested on: CRL-7250
PROTOCOL_DETAILS: Cytotoxic Profiling of Annotated Libraries Using Quantitative High-Throughput Screening (AID 1296008); note: nearly all actives have a fitted effect of over 60% in size; note: potency is the fitted concentration of half-maximal effect
ASSAY_SETUP: Five cell lines viability, CellTiter-Glo ATP luminescence, 48-72 h
Results filed as inconclusive are left out. Activity calls are given as the source filed them. Calls come from the whole dose curve; as a rule, active = well fitted inhibition curve with a large enough effect; inconclusive = small, poorly fitted or top-dose-only effect; inactive = flat fitted curve, though single readings scatter.
OUTCOME_MEASURE: Potency

>>> result("CC(=O)O[C@@H]1[C@H](O[C@@H]2O[C@@H](CO)[C@H](O)[C@H]2O)[C@@H](O[C@@H]2O[C@@H](C)[C@H](O[C@@H]3OC[C@@H](O)[C@H](O)[C@H]3O)[C@@H](O)[C@H]2O)[C@H](OC(=O)[C@]23CCC(C)(C)C[C@H]2C2=CCC4[C@@]5(C)CC[C@H](O[C@@H]6O[C@H](C(=O)O)[C@@H](O)[C@H](O)[C@H]6O[C@@H]6O[C@H](CO)[C@H](O)[C@H](O)[C@H]6O)[C@@](C)(C=O)C5CC[C@@]4(C)[C@]2(C)CC3)O[C@@H]1C (stereo partly drawn)")
"inactive"
>>> result("CC[C@]12C=CCN3CC[C@@]4(c5cc([C@@]6(C(=O)OC)C[C@H]7C[C@@H](C(C)(F)F)CN(Cc8c6[nH]c6ccccc86)C7)c(OC)cc5N(C)[C@H]4[C@@](O)(C(=O)OC)[C@@H]1OC(C)=O)[C@@H]32")
"0.485 µM (active)"
>>> result("Cn1nc(C(C)(C)C)cc1C(=O)NC(Cc1cccc(Cl)c1)C(=O)NCC#N (stereo not drawn)")
"inactive"
>>> result("CCOc1cc(C(=O)N2CCC(N3CCN(C)CC3)CC2)ccc1Nc1ncc2c(n1)N(C1CCCC1)c1ccccc1C(=O)N2C")
"10.3 µM (active)"
>>> result("CC(=O)O[C@@H]1C[C@H](O)[C@@]23CO[C@H](O)[C@]1(C)C2C[C@@H](O)[C@]1(C)C3C(=O)[C@H](OC(C)=O)[C@@]2(C)[C@H](c3ccoc3)C[C@H]3O[C@]321 (stereo partly drawn)")
"0.485 µM (active)"
>>> result("C=C1C[C@@]23CCC4[C@@](C)(CCC[C@@]4(C)C(=O)OC)C2CC[C@@H]1C3 (stereo partly drawn)")
"inactive"
>>> result("CNC(=O)c1ccccc1Nc1nc(Nc2ccc3c(c2OC)CCCC(N2CCN(CCO)CC2)C3)ncc1Cl (stereo not drawn)")
"7.31 µM (active)"
>>> result("COC(=O)c1cc(OC)c(O[C@@H]2O[C@@H](C)[C@H](O)[C@@H](O)[C@H]2O)c(OC)c1")
"inactive"

---

System: CAOV3
PROTOCOL_DETAILS: Primary qHTS to identify gynecologic anti-cancer compounds using libraries of approved drugs and bioactive compounds (AID 1345084); note: nearly all actives have a fitted effect of over 55% in size
ASSAY_SETUP: Gynecologic cancer cell panel viability, ATPlite luminescence, 48 h; series mostly up to 57.5 µM
Inconclusive results are not listed. Active and inactive are the calls of the source. Calls follow the shape of the dose curve; as a rule, active = well fitted cell-killing curve with a large enough effect; inconclusive = small, poorly fitted or top-dose-only effect, or effect the other way; inactive = flat fitted curve, though single readings scatter. Where a SMILES comes first, the peptide text is derived from it. The star is where a group is joined. AFC = O=c1cc(C(F)(F)F)c2ccc(N*)cc2o1
Labels: YES = active, NO = inactive

>>> class("CS(=O)(=O)NCC1CCC(Nc2nc3c(s2)CCSc2ccccc2-3)CC1 (stereo not given)")
"NO"
>>> class("CC(=O)OC1C[C@]2(C)C(O)CC(C)=C[C@H](OC(=O)c3ccc(O)cc3)C2[C@]1(O)C(C)C (stereo not given in full)")
"NO"
>>> class("COc1ccc(Oc2cc(C)c(-c3csc(NC(=O)c4ccncc4)n3)c(C)c2)cc1")
"NO"
>>> class("CC1(c2nc3c(C(N)=O)cccc3[nH]2)CCCN1 (stereo not given)")
"NO"
>>> class("CC(C)=CCC[C@](C)(O[C@@H]1O[C@H](CO)[C@@H](O)[C@H](O)[C@H]1O)[C@H]1CC[C@]2(C)[C@@H]1[C@H](O)CC1[C@@]3(C)CC[C@H](O)C(C)(C)C3[C@@H](O[C@@H]3O[C@H](CO)[C@@H](O)[C@H](O)[C@H]3O)C[C@]12C (stereo not given in full)")
"NO"
>>> class("C=CC(=O)Nc1cc(Nc2nccc(-c3c[nH]c4ccccc34)n2)c(OC)cc1N(C)CCN(C)C")
"YES"
>>> class("C=C1CCC2C(C)(C)CCC[C@]2(C)[C@H]1C/C=C(\\CO)C(=O)C(=O)O (stereo not given in full)")
"NO"
>>> class("C=C(CCC1=C(C)[C@H]2[C@H](CC3[C@@H]4CC=C5C[C@@H](O)C[C@@H](O)[C@]5(C)C4[C@H](O)C[C@@]32C)O1)CO[C@@H]1O[C@H](CO)[C@@H](O)[C@H](O)[C@H]1O (stereo not given in full)")
"YES"
>>> class("COC(=O)c1cc(OC)c(O[C@@H]2O[C@@H](C)[C@H](O)[C@@H](O)[C@H]2O)c(OC)c1")
"NO"
>>> class("C/C=C1\\[C@H](O[C@@H]2O[C@H](CO)[C@@H](O)[C@H](O)[C@H]2O)OC=C(C(=O)OC)[C@H]1CC(=O)OC[C@H]1O[C@@H](OCCc2ccc(O)cc2)[C@H](O)[C@@H](O)[C@@H]1O")
"NO"
>>> class("C[C@H](C/C=C/C(C)(C)O)[C@H]1CC[C@@]2(C)[C@@H]3[C@@H](O[C@@H]4O[C@H](CO)[C@@H](O)[C@H](O)[C@H]4O)C=C4C(CC[C@H](O)C4(C)C)[C@]3(C=O)CC[C@]12C (stereo not given in full)")
"NO"
>>> class("O=C(CO)[C@@H](O)[C@H](O[C@@H]1O[C@H](CO)[C@H](O)[C@H](O)[C@H]1O)[C@H](O)CO")
"NO"
>>> class("CC(=O)N[C@@H](Cc1c[nH]c2ccccc12)C(=O)N[C@@H](CCC(=O)O)C(=O)N[C@@H](Cc1cnc[nH]1)C(=O)N[C@@H](CC(=O)O)C(=O)Nc1ccc2c(C(F)(F)F)cc(=O)oc2c1 (Ac-WEHD-{AFC})")
"NO"
>>> class("O=C1N=C(N2CCOCC2)CN1c1ccc(Cl)cc1")
"NO"
>>> class("CN(C)CC1CCOC1(c1ccccc1)c1ccccc1 (stereo not given)")
"NO"
>>> class("CC(=O)O[C@@H]1CC(C)=C2[C@H]1[C@H](C)CC[C@H]2/C=C(\\C)C(=O)O")
"NO"
>>> class("CCCC1(c2ccccc2)NC(=O)N(CC(=O)N(C)Cc2c(F)cccc2Cl)C1=O (stereo not given)")
"NO"
>>> class("CC(=O)OC[C@]12[C@H](OC(C)=O)C(=O)[C@@H]3[C@@H](OC(C)=O)[C@@]14O[C@@]3(C)COC(=O)c1cccnc1[C@@H](C)[C@H](C)C(=O)O[C@@H]([C@H](O)[C@@H]2OC(C)=O)[C@]4(C)O")
"NO"
>>> class("CCc1c(-c2ccccc2)c(-c2ccccc2)nn1-c1ccccc1-c1cccc(OCC(=O)O)c1")
"NO"
>>> class("OC/C=C/c1ccc(O[C@@H]2O[C@H](CO)[C@@H](O)[C@H](O)[C@H]2O)cc1")
"NO"
>>> class("C[C@H]1O[C@@H](O[C@H]2CC[C@@]3(C)C(CC[C@]4(C)C3CC=C3C5CC(C)(C)CC[C@]5(C(=O)O)CC[C@]34C(=O)O)C2(C)C)[C@H](O)[C@@H](O)[C@@H]1O (stereo not given in full)")
"NO"
>>> class("C=C(C(=O)O)C1CCC2(C)CCC(O)C(C)(O)C2C1 (stereo not given)")
"NO"
>>> class("C=C[C@H]1[C@H](O[C@@H]2O[C@H](CO)[C@@H](O)[C@H](O)[C@H]2O)OC=C(C(=O)OC)[C@H]1CCOC(=O)c1cc(O)c(O)c(O)c1")
"NO"
>>> class("CC(=O)O[C@@H](CO[C@@H]1O[C@H](CO)[C@H](O)[C@H](O)[C@H]1O)[C@]1(C)C=C2CC[C@@H]3C(C)(C)[C@@H](O)CC[C@@]3(C)[C@@H]2CC1")
"NO"
>>> class("O=C(/C=C/c1ccc(O)cc1)N[C@@H](Cc1ccc(O)cc1)C(=O)O")
"NO"
